Biological target: Potassium voltage-gated channel subfamily KQT member 1 (Homo sapiens)
Assay: inhibitors of human KCNQ1 channel, primary screen, cell-based, thallium flux, high-throughput (AID 2642);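 note: channel opened by potassium depolarization with thallium stimulus after 20 min compound exposure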
Details: CHO-K1 KCNQ1, FluxOR thallium flux fluorescence, at 10 µM
The whole screen tested about 310,000 compounds, of which about 3,900 (1.3%) were called active.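 Rule for the calls: active = compounds whose thallium flux B-score, printed positive for inhibition, exceeds three library SD while starting fluorescence stays within three; inactive = the rest.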 What follows is part of a selection rich in actives, with near analogues and random picks from the rest.
Respond with a class label; see yes for active, no for inactive

What was the test verdict on COc1cccc(NC(=O)CN(C)C(C)C(=O)Nc2ccc(C#N)cc2)c1 (stereo not given) ?
no

Recorded call for FC(F)(F)c1cccc(NC(=S)Nc2cccc(Cl)c2)c1 ?
yes

Hey, what did the test say about Cc1cccc(N2CCN(C(=O)c3cccc(N4C(=O)C5C6C=CC(C6)C5C4=O)c3)CC2)c1C (stereo not given) ?
no

What outcome does the record of this test show for CCn1c(C)c(C)c2cc(C(=O)N3CCN(c4cccc(C)c4C)CC3)ccc21 ?
yes

Give the logged outcome of this assay for the following compound: CCC(CC)C(=O)N1CCN(c2cccc(C)c2C)CC1
no

All values here come from PubChem BioAssay AID2642.
